- tgt: α4β1 (VLA-4) as used in the competition ELISAs (UniProt P13612 34-970; P05556 21-728)
- test_description: competition ELISA; mixture of mouse HP1/2 with test mAb binding to integrin
reported_property: IC50 (nM)
Output spec: scalar in nM, unitless text.

H1L1 (antibody, V domains shown, also called Design H1 / Design L1) VH: EVQLVQSGAEVKKPGATVKISCKASGFNIKDTYMHWVQQAPGKGLEWMGRIDPASGDTKYDPKFQVRVTITADTSTDTAYMELSSLRSEDTAVYYCADGMWVSTGYALDFWGQGTLVTVSS VL: SIVMTQSPDSLAVSLGERATINCKASQSVTNDVAWYQQKPGQPPKLLIYYASNRYTGVPDRFSGSGSGTDFTLTISSLQAEDVAVYFCQQDYSSPYTFGQGTKVEIK ... 4.55
H1L2 (antibody, V domains shown, also called Design H1 / Design L2) VH: EVQLVQSGAEVKKPGATVKISCKASGFNIKDTYMHWVQQAPGKGLEWMGRIDPASGDTKYDPKFQVRVTITADTSTDTAYMELSSLRSEDTAVYYCADGMWVSTGYALDFWGQGTLVTVSS VL: SIVMTQSPDSLAVSLGERATINCKASQSVTNDVAWYQQKPGQPPKLLIYYASNRYTGVPDRFSGSGYGTDFTLTISSLQAEDVAVYFCQQDYSSPYTFGQGTKVEIK ... 1.34
H1L0 (antibody, V domains shown, also called Design H1 / Design L0) VH: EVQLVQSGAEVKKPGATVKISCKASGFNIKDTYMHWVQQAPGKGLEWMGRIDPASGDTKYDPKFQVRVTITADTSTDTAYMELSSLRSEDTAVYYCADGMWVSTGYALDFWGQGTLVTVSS VL: DIVMTQSPDSLAVSLGERATINCKASQSVTNDVAWYQQKPGQPPKLLIYYASNRYTGVPDRFSGSGSGTDFTLTISSLQAEDVAVYYCQQDYSSPYTFGQGTKVEIK ... 4.46

Let's switch to this binder now.
Prompt: So what does the record say about IC50 for Chimeric HP1/2 (antibody, human IgG1, V domains shown, also called chimerized HP1/2 antibody; chimeric mAb) VH: EVQLQQSGAELVKPGASVKLSCTASGFNIKDTYMHWVKQRPEQGLEWIGRIDPASGDTKYDPKFQVKATITADTSSNTAWLQLSSLTSEDTAVYYCADGMWVSTGYALDFWGQGTTVTVSS VL: SIVMTQTPKFLLVSAGDRVTITCKASQSVTNDVAWYQQKPGQSPKLLIYYASNRYTGVPDRFTGSGYGTDFTFTISTVQAEDLAVYFCQQDYSSPYTFGGGTKLEIK ?
Response: 1.64
